For each entry below, report its apparent KD of MS2 coat protein value.
Tested on: MS2 coat protein
assay: apparent KD of MS2 coat protein; designed switch direction (-1 OFF switch, 1 ON switch): -1; higher = weaker reporter binding
conditions-used: input ligand: none
Reply with just the number (in nM).

-- ask Which measured apparent KD of MS2 coat protein value corresponds to AUCCAGCGAGGAUAUACUUUGUUUUUUUCGUUUUGUCUCGAACAUGAGGAUCACCCAUGUAGAAGGUGCUUCAC [JR_Ex2_Sub005] (Eterna round: R97, puzzle: Exclusion 2) ?
-- reply 69.7

-- ask Which measured apparent KD of MS2 coat protein value corresponds to UUUUACAUGCUGAGAUCCUACAUGAGGAUCACCCAUGUGGUCCGGUGACUUUUGUCACCGGAUUUUGCUCGUCUUGU [salish99_S_TOV1_R5_101] (Eterna round: R97, puzzle: Sensor, turn-off variant 1) ?
-- reply 108

-- ask Which measured apparent KD of MS2 coat protein value corresponds to GUUCCACGAGGAUAUGAGGGCAACUACAUGAGGAUCACCCAUGUGAGCGAUCCUCAGAAGUCAGAAGGCGUGGAGA [Eternabot (L2) Solution 77] (Eterna round: R97, puzzle: Exclusion 5) ?
-- reply 70.4

-- ask Which measured apparent KD of MS2 coat protein value corresponds to GACUAGUGAGGAUAUACUUGCAGUGUACCUCGGGUGAUCUCACUUGAGGAUCACCCAAGUAGAAGGCGCGAGGG [EX2 #23] (Eterna round: R97, puzzle: Exclusion 2) ?
-- reply 18.3

-- ask Which measured apparent KD of MS2 coat protein value corresponds to AGGAUCCUAGGAUAUGCUGGGUAUCGCUGUCGGAGGGACAGACAUGAGGAUCACCCAUGUAGAAGGAGGCGCUC [Eternabot (L1) Solution 5] (Eterna round: R97, puzzle: Exclusion 2) ?
-- reply 667

-- ask Which measured apparent KD of MS2 coat protein value corresponds to UGUUGUUCAGGAUAUGAUGUAUAAUACAUGAGGAUCACCCAUGUAGAUCCUGCUUUGGCGUCAGAAGGGAAUGUUG [salish99_ex5_r4_107] (Eterna round: R97, puzzle: Exclusion 5) ?
-- reply 51.8

-- ask Which measured apparent KD of MS2 coat protein value corresponds to UAACAAAUGGUCAGGAUAUCAUUCCCGGCCCAGAGUGAGAAGGGACAUGAGGAUCACCCAUGUGUGAUUCUCAU [jl-ex4-4.55 ViennaUCT mod] (Eterna round: R97, puzzle: Brourd's mod of Exclusion 4) ?
-- reply 97.1

-- ask Which measured apparent KD of MS2 coat protein value corresponds to ACCAUUUACUAAUCCUCUAUACAUGAGGAUCACCCAUGUUCUGAGGAUAUCAUCGUUCGCCGCGUUGAGAAGGCAGAGCAUUCG [Ariestion] (Eterna round: R96, puzzle: Exclusion NG 3) ?
-- reply 24.8

-- ask Which measured apparent KD of MS2 coat protein value corresponds to UUCGUGCAGCUUUGCUGUACGCGUACAUGAGGAUCACCCAUGUAGGAUAUGGUAGGCUUUGCUUACUAGAAGGAUAUUGUGAUC [JL EXNG3 1.32] (Eterna round: R96, puzzle: Exclusion NG 3) ?
-- reply 123

----------
System: K4 kissing-loop RNA reporter;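 further: bound reporter read as fluorescence of individual clusters on recovered sequencing chips by microscopy, with normalized cluster intensities fitted with a binding model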
assay: apparent KD of K4 kissing-loop reporter; higher = weaker reporter binding
conditions-used: Eterna round: R107; input ligand: tryptophan 2.4 mM
For each entry below, report its apparent KD of K4 kissing-loop reporter value.

-- ask Which measured apparent KD of K4 kissing-loop reporter value corresponds to CAGGCGACUAUCGAUACCAGAUGAUAUCGACUACUUGAGUGAUGUUCGAUUAAAGGCAUUAUCCCUUGGCAGCGACUGGACACAU [theeternabot_sameState_KL_Theo_B_24] ?
-- reply 414 nM

-- ask Which measured apparent KD of K4 kissing-loop reporter value corresponds to AACCUUGUAGUGAUGUUGCAAGGCGCUGAUACCAGUCACAGCCACGACCCUUGGCAGCAGUGGCGUUCAUGAUAAAAUAGAUUAA [theeternabot_sameState_KL_Theo_A_49] ?
-- reply 39.9 nM

-- ask Which measured apparent KD of K4 kissing-loop reporter value corresponds to AUCGUUGUCUGAGGAUAUCGGUUAUCUGUAGUGAUGUUACAGUAUAUUGAUAUUAAAGUUUCUAUUCGAGAAGGCAGACUACGUA [JR_Nu_ExcFMNB_Sub022] ?
-- reply 71.9 nM

-- ask Which measured apparent KD of K4 kissing-loop reporter value corresponds to AAAUAUAGUGAUGUUAUAUAUAUAUGUGAUACCAGAGAAAGAAAACUCCCUUGGCAGCACGAGAGAGAAUUUUUUUUUUAUAUAU [AstrosSSTheA#1] ?
-- reply 245 nM

-- ask Which measured apparent KD of K4 kissing-loop reporter value corresponds to GGUUCCUCAGUGAUGUUGAGGUGACCUCGGCAGGAUAUAGGCAUUACUAGAAGGGCCAAAAGAAUCCUGUGCAGCAACACAGGGA [Usrasoza] ?
-- reply 262 nM

-- ask Which measured apparent KD of K4 kissing-loop reporter value corresponds to UCCUAGGCUCGAAAGAGCCUAGGAUGGACUCAGGAUAUCCGGAAACGGAGAAGGGAGUCACUAGUGAUGUUAGGGACUCCCUAAC ?
-- reply 109 nM

-- ask Which measured apparent KD of K4 kissing-loop reporter value corresponds to AGGGCGGAGUGAUGUUCCGGCUCCCGAUUUAAGGAUAUUGCGUAAACAAGAAGGUAAAGGCGCAGCAAUAUUAUUUCGUAAGGCG [theeternabot_exclusion_KL_FMN_A_23] ?
-- reply 79.1 nM

-- ask Which measured apparent KD of K4 kissing-loop reporter value corresponds to UGUACUAUUGUGAGUGAUGUUCACUUCGAUACCAGCAGAGCGAUCUGCCCUUGGCAGCGAGUUAACUGCCGAAAGGCAAGGAUUA [Theo B SS t9] ?
-- reply 378 nM

-- ask Which measured apparent KD of K4 kissing-loop reporter value corresponds to GCCGUAGAUUGAAGGAGCGUUCUUCAGCAUACUUGCAGUGAUGUUGCAUUUUACAUGUAAGAACAGGUAGGUCGCAAUCUACGGC ?
-- reply 235 nM

-- ask Which measured apparent KD of K4 kissing-loop reporter value corresponds to AAUUUACAAUAAUCAUUUAAAGGAUCAGAAGGAGCGUGUUAUAACACAGGUAGGUCGCUGAGCGAGUGAUGUUCGCUAUAUACAA [JR_ExcArginiA_Sub002] ?
-- reply 64.5 nM

-- ask Which measured apparent KD of K4 kissing-loop reporter value corresponds to UGUCAUUGGUCUGAUACCAGUUGAUAAACUGGAGUGAUGUUCCUCGACGAAUACGUCGACAACCCUUGGCAGCAGACCGAUGACU [TheoBS 14 #SwitchBubble 13 #StaticStem] ?
-- reply 607 nM

-- ask Which measured apparent KD of K4 kissing-loop reporter value corresponds to GCGGGCCAGACGGCCGCCACUCCGGGCAGUGAUGUUGCGAAUCUUCUACUAGAGUGAUGUUCUACGAGGACCGGGUCGGAACGCG [Exclusion Tryptophan B Gf 14] ?
-- reply 289 nM

-- ask Which measured apparent KD of K4 kissing-loop reporter value corresponds to CGCGGCCCGCCGGAUACCAGUGACCCGCGGGAAACCGCGGGCCCAGAGUGAUGUUCGGGACACCCUUGGCAGCCGCCUGGGCGUG [#2 Same State - Theophylline B Attempt #1 (HarryS)] ?
-- reply 424 nM

-- ask Which measured apparent KD of K4 kissing-loop reporter value corresponds to UGACUGGACUGAAGGAGCGGGCGAGACAAAGUCUCGAACUGCUAGUGAUGUUAGCAAAUAACCCAGGUAGGUCGCAGUCUAGUCU ?
-- reply 110 nM

-- ask Which measured apparent KD of K4 kissing-loop reporter value corresponds to UGAUAGGACAGAAGGAGCGGGAGUGAUGUUCCCAAAGGAAGGUCUAGCAAAGCUGGACCCUCCCAGGUAGGUCGCUGUCCUAUCU [ArgBX 4 #SwitchBubble #StaticStem] ?
-- reply 118 nM

-- ask Which measured apparent KD of K4 kissing-loop reporter value corresponds to GGAGAGGUCUUGUUUGGAUGUGAUUAAUGGCGAGGACCGGUACGGCCGCCACUCGGGUGAUGUUAGUGAUGUUGAUGUAGUGAUG [uyumullin] ?
-- reply 109 nM

-- ask Which measured apparent KD of K4 kissing-loop reporter value corresponds to CCGGAUUAUGCGGCCGCCACUGAGAAAUUGGAGGUACGCCCUCCCGAUAGUGAUGUUAUCCAUUACAGGACCGGGCAUCUCCUCU [theeternabot_sameState_KL_Trp_B_23] ?
-- reply 325 nM

-- ask Which measured apparent KD of K4 kissing-loop reporter value corresponds to CCGAAGAACCAGUGAUGUUGGUUGACUAGACAGGAUAUGAGCAACAUCAGAAGGGUCUGGCUUCGGGAGUGAGUCGCGCUGACUU [Reverigeed] ?
-- reply 314 nM

-- ask Which measured apparent KD of K4 kissing-loop reporter value corresponds to UAUAUAGUGACGGCCGCCACUAUAUUAAUGUUUAGGUUAGAGUGAUGUUUUGAUUAAUAUUUUUAUAGGACCGGGUUAUAUGUUA [xerrmullin] ?
-- reply 428 nM

-- ask Which measured apparent KD of K4 kissing-loop reporter value corresponds to AGCGGCCAGUCGGCCGCCACUCCAAGCAGUGAUGUUGCUAAGUUUCUACAAGAGUGAUGUUCUUAGAGGACCGGGACUGAUGUGA [Exclusion Tryptophan B Gf 7] ?
-- reply 157 nM

-- ask Which measured apparent KD of K4 kissing-loop reporter value corresponds to AAAUAGAUCAGUCAUCCAGUGAUGUUGGAAGGAGCGUGCGAAAGCACAGGUAGGUCGCCAGAAUAAAAGUGGCUGAUCAAAAUAA ?
-- reply 178 nM

-- ask Which measured apparent KD of K4 kissing-loop reporter value corresponds to CGAGCGCGUGCGGCCGCCACUACUAUAAGUCGUCCAAGUUAGUGAUGUUGACUGAACGUCGGAAAUAGGACCGGGCAUAGUUUUA [theeternabot_sameState_KL_Trp_B_40] ?
-- reply 300 nM

-- ask Which measured apparent KD of K4 kissing-loop reporter value corresponds to AGUAUGUAAUAUGGCAUAUUUAGAACUGAAGGAGCGCCGAAUAAGGCAGGUAGGUCGCGGAAUCAUGAGUGAUGUUCAUGACUAU [KL-SSArg-A26] ?
-- reply 91.1 nM
